- Tested on: Amaranthus retoflexus (AMARE)
- assayText: Herbicidal glasshouse test, post-emergence
- Assay type: in vivo
- conditionsUsed: Amaranthus retroflexus, post-emergence, 312 h, POST Application, evaluated after 13 days, read-out: damage to plant (100=total damage to plant; 0=no damage to plant)
readoutName: pest or weed control at 250 g/ha (%)
Answers are plain numbers, in %.

COCn1c(=O)c(C(=O)C2C(=O)CCCC2=O)cc2cc(F)cnc21 | 80
Cn1c(=O)c(C(=O)C2C(=O)CCCC2=O)cc2cccnc21 | 90

Moving on to the next molecule.
INPUT: What value of measured pest or weed control at 250 g/ha is listed for CCCn1c(=O)c(C(=O)C2C(=O)CCCC2=O)cc2cc(F)cnc21 ?
OUTPUT: 70

Ref: patent US8450243B2
